System: HCI01 (cells of a triple-negative basal-like breast cancer xenograft)
Test: cell viability (% of vehicle); higher = less cytotoxic
Conditions: 10 µM; 72 h
Assign cell viability to each entry below.
One number for each entry.

For orientation, consider the following solved cases.
- molecule: "CC1(C)CCC(C)(C)c2cc(NC(=O)c3ccc(C(=O)O)cc3)ccc21"
  cell viability: 108
- molecule: "O=C1NC(=O)[C@@H](c2c[nH]c3ccccc23)[C@H]1c1cn2c3c(cccc13)CCC2 [Tivantinib (ARQ 197)]"
  cell viability: 161
- molecule: "CNCCC(Oc1cccc2ccccc12)c1cccs1.Cl (centres undefined) [Duloxetine HCl]"
  cell viability: 87.3

Okay, now this molecule:
Query block: Request body: readout cell viability, system HCI01, query CCOC(=O)C(CCc1ccccc1)NC(C)C(=O)N1CCCC1C(=O)O.O=C(O)C=CC(=O)O (centres undefined) [Enalapril Maleate] . Return the value.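 Note: PDX cells carrying CMV promoter-driven luciferase, viability read as total photon flux per second by IVIS imaging following D-luciferin, vehicle control 0.1% DMSO.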
Result block: 128
